Target: mouse MSR1 on RAW264.7 cells (mouse) (UniProt P30204)
Sequence (P30204 whole entry): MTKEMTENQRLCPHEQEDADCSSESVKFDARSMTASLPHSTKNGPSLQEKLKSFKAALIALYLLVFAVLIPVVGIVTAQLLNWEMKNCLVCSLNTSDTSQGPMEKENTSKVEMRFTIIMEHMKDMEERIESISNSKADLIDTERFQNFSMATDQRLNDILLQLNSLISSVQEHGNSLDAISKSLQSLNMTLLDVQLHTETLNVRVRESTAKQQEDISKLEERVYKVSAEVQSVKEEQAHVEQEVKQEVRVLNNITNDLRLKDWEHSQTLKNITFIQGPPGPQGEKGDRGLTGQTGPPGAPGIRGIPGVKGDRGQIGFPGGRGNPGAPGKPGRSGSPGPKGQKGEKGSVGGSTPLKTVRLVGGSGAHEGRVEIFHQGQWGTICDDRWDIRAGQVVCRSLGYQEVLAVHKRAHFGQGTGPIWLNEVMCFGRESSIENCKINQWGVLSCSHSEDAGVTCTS
Experiment: flow cytometry, RAW264.7 cells, 10 ug/mL
measure: MFI
Format: numeric value only, no unit, no commentary.

# binder, MFI
records = [
    ("H1H27739P-N297Q (antibody, human IgG1, V domains shown) VH: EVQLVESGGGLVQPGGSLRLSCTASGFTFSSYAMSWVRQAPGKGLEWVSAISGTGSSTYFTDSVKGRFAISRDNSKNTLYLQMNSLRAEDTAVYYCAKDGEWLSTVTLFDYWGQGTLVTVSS VL: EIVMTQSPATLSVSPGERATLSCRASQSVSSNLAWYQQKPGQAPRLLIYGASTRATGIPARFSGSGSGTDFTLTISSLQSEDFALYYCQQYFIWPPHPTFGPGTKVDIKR", 3270),
]

Now for the binder whose MFI we want.
Please fill in: MFI reported for H1H27747P-N297Q (antibody, human IgG1, V domains shown) VH: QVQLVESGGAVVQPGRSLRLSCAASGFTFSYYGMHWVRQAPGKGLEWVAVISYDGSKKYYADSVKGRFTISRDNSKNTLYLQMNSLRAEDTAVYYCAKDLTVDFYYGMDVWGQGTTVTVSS VL: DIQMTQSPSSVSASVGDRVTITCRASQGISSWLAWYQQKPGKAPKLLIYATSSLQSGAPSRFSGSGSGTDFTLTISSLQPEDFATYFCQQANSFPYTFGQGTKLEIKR = 3630
